Measured IC50, listed per entry.
- Tested on: P-388
- ASSAY_PROCEDURE: Inhibition of cell growth by counting cells, P-388
- Type: cell-based, mouse
- REPORTED_CONDITIONS: Mus musculus, P388, 72 h; three days of incubation; read-out: IC50 (molar) P-388

COMPOUND	IC50 (nM)
CCCCCCCC(=O)Oc1cc2c(cc1OC)[C@@]1(CS[C@@H]3c4c(OC(C)=O)c(C)c5c(c4[C@H](COC1=O)N1C3[C@H]3c4c(cc(C)c(OC)c4O)C[C@@H]([C@@H]1O)N3C)OCO5)NCC2 (some centres unmarked) [Compound 59]	0.113
CCCCCCCC(=O)Oc1c(C)c2c(c3c1[C@H]1SC[C@]4(NCCc5cc(OC(=O)OC(C)(C)C)c(OC)cc54)C(=O)OC[C@@H]3N3C1[C@H]1c4c(cc(C)c(OC)c4OC(=O)CCCCCCC)C[C@@H]([C@@H]3C#N)N1C)OCO2 (some centres unmarked) [Compound 120]	463
COc1cc2c(cc1OC(=O)C(F)(F)F)CCN[C@]21CS[C@@H]2c3c(OC(C)=O)c(C)c4c(c3[C@H](COC1=O)N1C2[C@H]2c3c(cc(C)c(OC)c3O)C[C@@H]([C@@H]1C#N)N2C)OCO4 (some centres unmarked) [Compound 3]	1.15
CCCCCCCCCCCCCCCC(=O)Oc1cc2c(cc1OC)[C@@]1(CS[C@@H]3c4c(OC(C)=O)c(C)c5c(c4[C@H](COC1=O)N1C3[C@H]3c4c(cc(C)c(OC)c4OC(=O)CCCCCCCCCCCCCCC)C[C@@H]([C@@H]1O)N3C)OCO5)NCC2 (some centres unmarked) [Compound 83]	80.8
COc1cc2c(cc1OC(C)=O)CCN[C@]21CS[C@@H]2c3c(OC(C)=O)c(C)c4c(c3[C@H](COC1=O)N1C2[C@H]2c3c(cc(C)c(OC)c3OC(C)=O)C[C@@H]([C@@H]1C#N)N2C)OCO4 (some centres unmarked) [Compound 6]	1.41
CCCC(=O)Oc1c(C)c2c(c3c1[C@H]1SC[C@]4(NCCc5cc(OC(=O)OC(C)(C)C)c(OC)cc54)C(=O)OC[C@@H]3N3C1[C@H]1c4c(cc(C)c(OC)c4O)C[C@@H]([C@@H]3C#N)N1C)OCO2 (some centres unmarked) [Compound 111]	1.11
C=CCOc1c(OC)c(C)cc2c1[C@H]1N[C@@H](C2)[C@H](C#N)N2C1[C@@H]1SC[C@]3(NCCc4cc(O)c(OC)cc43)C(=O)OC[C@H]2c2c3c(c(C)c(OC(C)=O)c21)OCO3 (some centres unmarked) [Compound 201]	12.6
COc1cc2c(cc1OC(=O)OC(C)(C)C)CCN[C@]21CS[C@@H]2c3c(OC(=O)C(F)(F)F)c(C)c4c(c3[C@H](COC1=O)N1C2[C@H]2c3c(cc(C)c(OC)c3O)C[C@@H]([C@@H]1C#N)N2C)OCO4 (some centres unmarked) [Compound 107]	1.08
C=CCOc1cc2c(cc1OC)[C@@]1(CS[C@@H]3c4c(OC(C)=O)c(C)c5c(c4[C@H](COC1=O)N1C3[C@H]3c4c(cc(C)c(OC)c4OCC=C)C[C@@H]([C@@H]1O)N3C)OCO5)NCC2 (some centres unmarked) [Compound 90]	11.9
CCCCCCCCCCCCCCCC(=O)Oc1cc2c(cc1OC)[C@@]1(CS[C@@H]3c4c(OC(C)=O)c(C)c5c(c4[C@H](COC1=O)N1C3[C@H]3c4c(cc(C)c(OC)c4O)C[C@@H]([C@@H]1C#N)N3C(=O)OC(C)(C)C)OCO5)NCC2 (some centres unmarked) [Compound 197]	9130
CCCC(=O)Oc1cc2c(cc1OC)[C@@]1(CS[C@@H]3c4c(OC(C)=O)c(C)c5c(c4[C@H](COC1=O)N1C3[C@H]3c4c(cc(C)c(OC)c4O)C[C@@H]([C@@H]1C#N)N3C)OCO5)NCC2 (some centres unmarked) [Compound 7]	0.119
CCCCCCCC(=O)Oc1cc2c(cc1OC)[C@@]1(CS[C@@H]3c4c(OC(C)=O)c(C)c5c(c4[C@H](COC1=O)N1C3[C@H]3c4c(cc(C)c(OC)c4OC(=O)CCCCCCC)C[C@@H]([C@@H]1C#N)N3C)OCO5)NCC2 (some centres unmarked) [Compound 15]	97.8
CCCCCCCC(=O)Oc1c(C)c2c(c3c1[C@H]1SC[C@]4(NCCc5cc(OC(=O)OC(C)(C)C)c(OC)cc54)C(=O)OC[C@@H]3N3C1[C@H]1c4c(cc(C)c(OC)c4O)C[C@@H]([C@@H]3C#N)N1C)OCO2 (some centres unmarked) [Compound 119]	10.5
COc1cc2c(cc1O)CCN[C@]21CS[C@@H]2c3c(OC(C)=O)c(C)c4c(c3[C@H](COC1=O)N1C2[C@H]2c3c(cc(C)c(OC)c3OC(C)=O)C[C@@H]([C@@H]1C#N)N2C)OCO4 (some centres unmarked) [Compound 51]	0.616
C=CCOC(=O)NC(CSCC1c2ccccc2-c2ccccc21)C(=O)Oc1cc2c(cc1OC)[C@@]1(CS[C@@H]3c4c(OC(C)=O)c(C)c5c(c4[C@H](COC1=O)N1C3[C@H]3c4c(cc(C)c(OC)c4O)C[C@@H]([C@@H]1C#N)N3C)OCO5)NCC2 (some centres unmarked) [Compound 18]	0.441
CCOc1cc2c(cc1OC)[C@@]1(CS[C@@H]3c4c(OC(C)=O)c(C)c5c(c4[C@H](COC1=O)N1C3[C@H]3c4c(cc(C)c(OC)c4OCC)C[C@@H]([C@@H]1O)N3C)OCO5)NCC2 (some centres unmarked) [Compound 88]	12.2
COc1cc2c(cc1O)CCN(C)[C@]21CS[C@@H]2c3c(OC(C)=O)c(C)c4c(c3[C@H](COC1=O)N1C[C@@H]3Cc5cc(C)c(OC)c(O)c5[C@H](C21)N3C)OCO4 (some centres unmarked) [Compound 185]	13.2
